This collection of values is drawn from patent US7919508B2.

TEST_SYSTEM: human dopamine D2Long (D2L) receptors (Homo sapiens, UniProt P14416)
Sequence (P14416 whole entry): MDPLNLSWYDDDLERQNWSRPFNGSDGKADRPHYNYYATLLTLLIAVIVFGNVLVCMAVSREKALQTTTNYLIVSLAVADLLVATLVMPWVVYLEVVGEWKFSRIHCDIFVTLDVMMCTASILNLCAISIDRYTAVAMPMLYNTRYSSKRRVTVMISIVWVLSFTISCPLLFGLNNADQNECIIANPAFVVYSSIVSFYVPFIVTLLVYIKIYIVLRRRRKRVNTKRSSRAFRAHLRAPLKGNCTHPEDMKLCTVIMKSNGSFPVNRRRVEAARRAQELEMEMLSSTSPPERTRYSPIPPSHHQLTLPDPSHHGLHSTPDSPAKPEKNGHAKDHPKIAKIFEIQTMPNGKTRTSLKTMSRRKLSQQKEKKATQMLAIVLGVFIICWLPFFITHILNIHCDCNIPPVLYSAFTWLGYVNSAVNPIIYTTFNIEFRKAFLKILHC
Structures can show the parent of a compound that is named as a salt.
Can you tell me Ki for the items I'm about to list?
Give bare numbers, in nM.

Sample answers from the record:
Cc1ccc(OC(=O)N2CCC([C@@H]3Cc4c(ccc(C)c4O)[C@H](CN)O3)CC2)cc1 [Example 114, hydrochloride]; 511
Cc1ccc2c(c1O)C[C@@H](C1CCN(Cc3nc4ccccc4n3C)CC1)O[C@H]2CN [Example 92, trihydrochloride]; 93.4
Cc1ccc2c(c1O)C[C@@H](C1CCN(Cc3cc4ccccc4o3)CC1)O[C@H]2CN [Example 85, dihydrochloride]; 389

Dear reader, for each entry below, please note its Ki.
1. Cc1ccc2c(c1O)C[C@@H](C1CCN(S(=O)(=O)CC(F)(F)F)CC1)O[C@H]2CN [Example 157, hydrochloride]
2. Cc1ccc2c(c1O)C[C@@H](C1CCN(Cc3c[nH]c4ccccc34)CC1)O[C@H]2CN [Example 89, dihydrochloride]

434
199

---

TEST_SYSTEM: D1 receptor (Homo sapiens, UniProt P21728)
Construct: expressed in transfected cells; host or cells: D1 transfected CHO cell line
Sequence (P21728 whole entry): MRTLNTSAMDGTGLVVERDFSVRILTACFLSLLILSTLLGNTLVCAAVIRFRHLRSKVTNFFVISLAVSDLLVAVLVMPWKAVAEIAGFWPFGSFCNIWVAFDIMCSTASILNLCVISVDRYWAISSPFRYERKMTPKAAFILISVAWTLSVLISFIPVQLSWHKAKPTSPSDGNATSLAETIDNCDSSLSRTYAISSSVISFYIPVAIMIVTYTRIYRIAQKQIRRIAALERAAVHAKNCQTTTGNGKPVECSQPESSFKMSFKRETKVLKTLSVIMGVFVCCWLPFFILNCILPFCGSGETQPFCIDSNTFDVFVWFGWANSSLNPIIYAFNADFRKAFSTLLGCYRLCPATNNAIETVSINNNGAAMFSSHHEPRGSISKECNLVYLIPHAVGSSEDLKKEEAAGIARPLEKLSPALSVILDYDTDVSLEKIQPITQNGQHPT
ASSAY_PROCEDURE: D1 Activation Adenylyl Cyclase Assay (cAMP FlashPlate, D1 transfected CHO cell line)
Assay type: cell-based
RECORDED_CONDITIONS: agonist activity at the D1 receptor, adenylate cyclase assay, D1 transfected CHO cell line; read-out: D1 EC50
pEC50: −log10 of the molar value. Counter-ions that a name gives are not always drawn.
Decision: pEC50 >= 7 yields yes (1), all other cases yield no (0).

Consider the following illustrative entries.
Cc1ccc2c(c1O)C[C@@H](C1CCN(Cc3ccc(C(F)(F)F)cc3)CC1)O[C@H]2CN(C)C [Example 168]; no (0)
CCN(C)C[C@@H]1O[C@H](C2CCN(Cc3ccc(C(F)(F)F)cc3)CC2)Cc2c1ccc(C)c2O [Example 183]; no (0)
Cc1ccc2c(c1O)C[C@@H](C1CCN(S(=O)(=O)Cc3ccccc3)CC1)O[C@H]2CN [Example 142, hydrochloride]; yes (1)
CCCCN1CCC([C@@H]2Cc3c(ccc(C)c3O)[C@H](CN)O2)CC1 [Example 33, dihydrochloride]; yes (1)
Cc1ccc2c(c1O)C[C@@H](C1CCN(CCC(C)NC(=O)c3ccc(Cl)cc3Cl)CC1)O[C@H]2CN (some centres unmarked) [Example 17, dihydrochloride]; yes (1)
Cc1ccc2c(c1O)C[C@@H](C1CCN(Cc3ccc(C(C)C)cc3)CC1)O[C@H]2CN [Example 48, dihydrochloride]; yes (1)

Threshold query (pEC50 >= 7) on Cc1ccc2c(c1O)C[C@@H](C1CCN(C(=O)N(C)c3ccccc3)CC1)O[C@H]2CN [Example 131, hydrochloride]
yes (1)

What do we get for Cc1ccc2c(c1O)C[C@@H](C1CCN(Cc3ccncc3)CC1)O[C@H]2CN [Example 54, dihydrochloride] ?
yes (1)

What do we get for Cc1ccc2c(c1O)C[C@@H](C1CCN(Cc3cccc(C(F)(F)F)c3)CC1)O[C@H]2CN [Example 73, dihydrochloride] ?
yes (1)

What do we get for Cc1ccc2c(c1O)C[C@@H](C1CCN(CCC(C)NC(=O)c3ccc(Br)cc3)CC1)O[C@H]2CN (some centres unmarked) [Example 23, dihydrochloride] ?
yes (1)

What do we get for Cc1ccc2c(c1O)C[C@@H](C1CCN(Cc3ccnc4ccccc34)CC1)O[C@H]2CN [Example 57, dihydrochloride] ?
yes (1)

What do we get for Cc1ccc2c(c1O)C[C@@H](C1CCN(Cc3ccc(C(F)(F)F)cc3)CC1)O[C@H]2CN [Example 74, dihydrochloride] ?
yes (1)
